Here, each record is paired with measured pIC50 data.
target: Dipeptidyl peptidase 1 (Homo sapiens); assay: Blockade of conjugation of cathepsin C in human B721 cells to I125-labeled (S)-2-amino-N-((S)-1-(4-hydroxy-3-iodophenylsulfonyl)-5-phenylpent-1-en-3-yl)pentanamide pretreated for 30 mins before addition of I125-labeled (S)-2-amino-N-((S)-1-(4-hydroxy-3-iodophenylsulfonyl)-5-phenylpent-1-en-3-yl)pentanamide by SDS-PAGE; type: cell-based
Sequence (P53634 25-134 limits assumed): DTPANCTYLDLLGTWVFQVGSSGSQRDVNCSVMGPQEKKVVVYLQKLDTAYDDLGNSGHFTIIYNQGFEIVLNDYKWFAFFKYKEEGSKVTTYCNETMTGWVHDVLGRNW
Sequence (P53634 231-394 limits assumed): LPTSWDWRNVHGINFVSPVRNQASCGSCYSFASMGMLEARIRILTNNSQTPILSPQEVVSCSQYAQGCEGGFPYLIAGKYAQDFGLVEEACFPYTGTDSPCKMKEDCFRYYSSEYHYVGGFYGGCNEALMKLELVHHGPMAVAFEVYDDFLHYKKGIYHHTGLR
Sequence (P53634 395-463 limits assumed): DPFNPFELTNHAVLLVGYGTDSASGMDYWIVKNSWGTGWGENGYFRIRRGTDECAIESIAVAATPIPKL
// scale note: pIC50 = -log10(conc_M); give the bare number

CCC[C@H](N)C(=O)N[C@H](/C=C/S(=O)(=O)c1ccccc1)CCc1ccccc1; 7.00
CC[C@H](N)C(=O)N[C@H](C#N)Cc1ccc(-c2ccccc2)cc1; 5.00

Could you share which pIC50 value was measured for CC(C)C[C@H](NC(=O)N1CCOCC1)C(=O)N[C@H](/C=C/S(=O)(=O)c1ccccc1)CCc1ccccc1 ?
5.40

====

target: Cathepsin K (Homo sapiens); assay: Inhibition of human recombinant cathepsin K by fluorescence assay
Sequence (P43235 whole entry): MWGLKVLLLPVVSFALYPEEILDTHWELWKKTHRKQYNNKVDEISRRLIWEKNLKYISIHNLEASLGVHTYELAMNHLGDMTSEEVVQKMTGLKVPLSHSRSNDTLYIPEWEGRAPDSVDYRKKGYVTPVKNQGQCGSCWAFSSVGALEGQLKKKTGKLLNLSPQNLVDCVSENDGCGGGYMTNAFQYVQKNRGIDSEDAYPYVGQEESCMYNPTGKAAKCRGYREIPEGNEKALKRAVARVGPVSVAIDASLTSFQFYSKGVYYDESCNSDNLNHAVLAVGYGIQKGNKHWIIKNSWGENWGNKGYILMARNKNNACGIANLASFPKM
RECORDED_ENDPOINT: pKi
Worth noting: pKi values are minus log10 of concentrations stated in mol/L.

Observe how each entry below is paired with its result.
CC(C)C[C@H](NC(=O)N1CCOCC1)C(=O)N[C@H](/C=C/S(=O)(=O)c1ccccc1)CCc1ccccc1; 8.92
CC[C@H](N)C(=O)N[C@H](C#N)Cc1ccc(-c2ccccc2)cc1; 4.74

Kindly state the measured pKi obtained for CCC[C@H](N)C(=O)N[C@H](/C=C/S(=O)(=O)c1ccccc1)CCc1ccccc1 with Cathepsin K (Homo sapiens).
6.92

====

target: UniProt:P07858; test: Inhibition of human recombinant cathepsin B by fluorescence assay
Listed next: entries and their corresponding pKi.
In simple prose, pKi is minus the logarithm base ten of a concentration in moles per litre.

CC(C)C[C@H](NC(=O)N1CCOCC1)C(=O)N[C@H](/C=C/S(=O)(=O)c1ccccc1)CCc1ccccc1; 7.19

--- query ---
GET /values?readout=pKi&item= CCC[C@H](N)C(=O)N[C@H](/C=C/S(=O)(=O)c1ccccc1)CCc1ccccc1
5.96
